- study system: T1, TIAR12 (UniProt Q01085 1-181)
- T1 sequence: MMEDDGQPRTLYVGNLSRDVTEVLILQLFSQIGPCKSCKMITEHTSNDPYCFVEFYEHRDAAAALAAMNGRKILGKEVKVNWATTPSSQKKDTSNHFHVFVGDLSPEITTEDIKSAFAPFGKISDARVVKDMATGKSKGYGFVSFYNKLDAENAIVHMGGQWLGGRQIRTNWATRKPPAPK
- protocol text: SPR
For each of the binders below, state its Kd.
Give bare numbers, in nM.

INSERT INTO assay_data (binder, unit_annotation, recorded_result) VALUES
  ('UUUUUUUUUUUUUUUUUUUU (ssDNA, all deoxyuridine (2''-deoxy)) [U-rich DNA 20-mer]', 'nM', 21.7);

# evaluate next
## Input Kd lookup needed for GGGGGGUAUUUAUUAUUUAUUUAGGGGG (ssRNA) [AU-rich RNA 28-mer (TNF-alpha ARE)] , thanks.
## Output 42.5
